Assay: Oral bioavailability in Sprague-Dawley rat at 10 mg/kg measured for 24 hrs by LC-MS/MS analysis
Type: ADME, organism-based
Settings: in vivo
Endpoint: bioavailability
A complete answer gives the number and then names the unit.

Query: bioavailability; subject: "CCN1CCN(c2ccc(C(=O)Nc3cc(-c4ccc5ncn(Cc6c(Cl)cccc6Cl)c5c4)[nH]n3)cc2)CC1"
1.3%

* * *

Biological target: Receptor-type tyrosine-protein kinase FLT3 (Homo sapiens, UniProt P36888, ITD)
Sequence (P36888 whole entry, looked up, stated change not applied): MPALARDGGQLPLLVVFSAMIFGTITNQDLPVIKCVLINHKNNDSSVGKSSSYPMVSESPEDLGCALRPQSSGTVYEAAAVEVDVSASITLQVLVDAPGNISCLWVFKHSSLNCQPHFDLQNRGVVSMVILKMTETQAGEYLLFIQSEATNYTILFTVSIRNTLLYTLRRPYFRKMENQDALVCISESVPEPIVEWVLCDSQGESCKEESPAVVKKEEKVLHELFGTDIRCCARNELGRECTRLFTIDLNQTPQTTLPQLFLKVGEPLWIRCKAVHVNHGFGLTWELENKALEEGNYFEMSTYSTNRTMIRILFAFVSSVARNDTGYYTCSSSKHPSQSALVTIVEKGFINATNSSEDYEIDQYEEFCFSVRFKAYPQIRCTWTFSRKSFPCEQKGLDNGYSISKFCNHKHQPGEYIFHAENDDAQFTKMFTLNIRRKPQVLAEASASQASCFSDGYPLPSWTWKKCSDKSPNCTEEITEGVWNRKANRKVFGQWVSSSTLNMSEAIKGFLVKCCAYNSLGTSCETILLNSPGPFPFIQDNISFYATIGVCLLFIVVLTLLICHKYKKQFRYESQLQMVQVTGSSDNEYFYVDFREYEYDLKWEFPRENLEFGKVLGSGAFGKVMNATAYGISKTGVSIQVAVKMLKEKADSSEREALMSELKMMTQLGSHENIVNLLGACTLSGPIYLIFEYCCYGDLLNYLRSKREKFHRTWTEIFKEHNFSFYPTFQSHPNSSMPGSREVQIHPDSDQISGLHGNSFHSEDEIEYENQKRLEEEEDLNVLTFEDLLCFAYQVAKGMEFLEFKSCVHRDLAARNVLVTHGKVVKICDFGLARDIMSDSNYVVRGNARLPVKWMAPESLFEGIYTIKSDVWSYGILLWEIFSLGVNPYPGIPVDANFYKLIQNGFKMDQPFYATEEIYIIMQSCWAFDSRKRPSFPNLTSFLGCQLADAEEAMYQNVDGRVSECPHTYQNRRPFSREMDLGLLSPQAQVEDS
Assay: Inhibition of human FLT3-ITD mutant preincubated with enzyme for 20 mins followed by [gamma-33P]ATP addition and measured after 120 mins by filter binding method
Give measured pIC50 for each item. Keep answers brief.
Give bare numbers, as −log10 of the molar value.

Provide pIC50 values for the following items, in order.
1. Cc1ccccc1Cn1cnc2ccc(-c3cc(NC(=O)c4ccc(NC5CCN(C)CC5)cc4)n[nH]3)cc21
2. CN1CCC(Nc2ccc(C(=O)Nc3cc(-c4ccc5ncn(Cc6ccsc6)c5c4)[nH]n3)cc2)CC1
3. CC(C)n1cnc2ccc(-c3cc(NC(=O)c4ccc(NC5CCN(C)CC5)cc4)n[nH]3)cc21
4. CN1CCN(Cc2ccc(NC(=O)c3n[nH]cc3Nc3ncnc4[nH]ccc34)cc2)CC1
5. CN1CCC(Nc2ccc(C(=O)Nc3cc(-c4cccc5ncn(C)c45)[nH]n3)cc2)CC1
6. CN1CCC(Nc2ccc(C(=O)Nc3cc(-c4ccc5ncn(Cc6ccccc6)c5c4)[nH]n3)c(F)c2)CC1
7. CN1CCC(Nc2ccc(C(=O)Nc3cc(-c4ccc5ncn(Cc6ccccc6Cl)c5c4)[nH]n3)cc2)CC1
8. CN1CCC(Nc2ccc(C(=O)Nc3cc(-c4ccc5ncn(C6CCOCC6)c5c4)[nH]n3)cc2)CC1

[9.03, 8.85, 8.12, 8.77, 6.67, 7.95, 9.07, 8.24]

Provide pIC50 values for the following items, in order.
1. CN1CCC(Nc2ccc(C(=O)Nc3cc(-c4ccc5ncccc5c4)[nH]n3)cc2)CC1
2. CN1CCC(C(=O)Nc2cc(-c3ccc4ncn(Cc5ccccc5)c4c3)[nH]n2)CC1

7.99
6.40

Provide pIC50 values for the following items, in order.
1. CN1CCC(Nc2ccc(C(=O)Nc3cc(-c4ccc5ccn(Cc6ccccc6)c5c4)[nH]n3)cc2)CC1
2. COc1ccccc1Cn1cnc2ccc(-c3cc(NC(=O)c4ccc(NC5CCN(C)CC5)cc4)n[nH]3)cc21
3. CN1CCC(Nc2ccc(C(=O)Nc3cc(-c4ccc5ncn(Cc6ccccc6)c5c4)[nH]n3)cc2)CC1
4. CN1CCC(Nc2ccc(C(=O)Nc3cc(-c4ccc5ncn(-c6ccccc6)c5c4)[nH]n3)cc2)CC1

8.69
9.15
8.74
8.30

Provide pIC50 values for the following items, in order.
1. CN1CCC(Nc2ccc(C(=O)Nc3cc(-c4ccc5ncn(C6CC6)c5c4)[nH]n3)cc2)CC1
2. CN1CCC(Nc2ccc(C(=O)Nc3cc(-c4ccc5ncn([C@H]6CC[C@H](N)CC6)c5c4)[nH]n3)cc2)CC1
3. CN1CCC(Nc2ccc(C(=O)Nc3cc(-c4ccc5nccnc5c4)[nH]n3)cc2)CC1
4. Cc1cc(NC2CCN(C)CC2)ccc1C(=O)Nc1cc(-c2ccc3ncn(Cc4ccccc4)c3c2)[nH]n1

[8.45, 8.41, 7.85, 8.04]

* * *

Test: Cmax in Sprague-Dawley rat at 10 mg/kg, po measured for 24 hrs by LC-MS/MS analysis
Format: ADME, organism-based
Parameters: time 24 hrs, dose 10 mg/kg, route po
Conditions: in vivo
Endpoint: Cmax (ng/mL)
Give bare numbers, in ng/mL.

Query: Cmax; subject: "CCN1CCN(c2ccc(C(=O)Nc3cc(-c4ccc5ncn(Cc6c(Cl)cccc6Cl)c5c4)[nH]n3)cc2)CC1"
9.31
